Below, each entry is listed alongside its reported Fluorescence intensity, fluorescence competitive binding assay, OBP11.
Biological target: SfurOBP11 (Sogatella furcifera, UniProt V5T6E3)
Sequence (V5T6E3 entry or part of it): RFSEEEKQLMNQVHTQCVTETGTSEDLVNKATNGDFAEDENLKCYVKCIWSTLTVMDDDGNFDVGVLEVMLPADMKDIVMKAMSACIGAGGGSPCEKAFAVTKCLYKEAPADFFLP
Assay: biochemical
Format: binding
Conditions: ligand concentration 12, replicate 3
Endpoint label: Fluorescence intensity, fluorescence competitive binding assay, OBP11

Compound: CCCCCCCC
Measured number: 26721

Compound: CC(C)COC(=O)CCCCC(=O)OCC(C)C [DA(diisobutyl adipate)]
Measured number: 19860

Compound: Cc1cc(C(C)(C)C)c(O)c(C(C)(C)C)c1
Measured number: 18669

Compound: CCCCCCCC=O
Measured number: 28182

Compound: CCCCCCCCCCC
Measured number: 32197

Compound: CCCCCCCCCCCCC=O
Measured number: 26168

Compound: CCCCCC(C)=O
Measured number: 22151

Compound: CCCCCCCCCCCCO
Measured number: 22579

Compound: CCCCCCCCCCCCCC
Measured number: 30384

Compound: CC(=O)/C=C/C1=C(C)CCCC1(C)C
Measured number: 21593

Compound: C=C/C(C)=C/C/C=C(\C)CCC=C(C)C
Measured number: 31678

Compound: CCCCCCCCCCOCCCCCCCCCC
Measured number: 60823

---

Each record here notes measured Fluorescence competitive binding assay, OBP2 (raw fluorescence reading).
Biological target: SfurOBP2 (Sogatella furcifera, UniProt V5T759)
Sequence (V5T759 entry or part of it): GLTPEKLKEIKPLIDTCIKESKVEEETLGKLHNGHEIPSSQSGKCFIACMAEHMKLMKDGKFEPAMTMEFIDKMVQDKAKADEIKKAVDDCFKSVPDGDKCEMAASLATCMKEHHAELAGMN
Assay: biochemical
Format: binding
Settings: ligand concentration 12 (unit not given), replicate column 1 of 3
Endpoint label: Fluorescence competitive binding assay, OBP2 (raw fluorescence reading)

Molecule: O=C(c1ccccc1)c1ccccc1 [benzophenone]
Measured number: 12905
//
Molecule: OC1CCCCC1 [cyclohexanol]
Measured number: 12653
//
Molecule: CCCCCCCCCCCCCC [n-tetradecane]
Measured number: 17882
//
Molecule: O=Cc1ccccc1 [benzaldehyde]
Measured number: 13500
//
Molecule: C/C(=C\CO)CCC[C@H](C)CCC[C@H](C)CCCC(C)C [plant alcohol]
Measured number: 19327
//
Molecule: CCC/C=C/CO [(E)-2-hexenol]
Measured number: 14300
//
Molecule: CCCCCCCCCCCCCCCC [n-hexadecane]
Measured number: 11320
//
Molecule: CCCCCCCCCCCCC=O [tridecanal]
Measured number: 14964
//
Molecule: CCCCCCCCCCOCCCCCCCCCC [didecyl ether]
Measured number: 40538
//
Molecule: CCCCCCCC [n-octane]
Measured number: 12606
//
Molecule: CCCCCCCCCCCCO [lauryl alcohol]
Measured number: 16171
//
Molecule: CCCCCCCC=O [octanal]
Measured number: 16986

---

Biological target: SfurOBP11 (Sogatella furcifera, UniProt V5T6E3)
Experiment: biochemical
Assay type: binding
Details: ligand concentration 2, replicate 3
Method: Thirty-six rice odorants ([He et al., 2014]; [Wang et al., 2017]) and 1-N-phenyl-naphthylamine (1-NPN) were purchased from Sigma-Aldrich (St Louis, MO, USA). […] Fluorescence competitive binding assays were performed on Tecan Spark 10M (Tecan Group Ltd., Männedorf, Switzerland) with the F96 Black ELIAS Plate (Sangon) ([Khuhro et al., 2017]; [Liu et al., 2017]). The solutions were excited at 337 nm and emission spectra were recorded between 390 and 490 nm. […]
Endpoint label: Fluorescence intensity, fluorescence competitive binding assay, OBP11

Compound: CCCCCCCCC=O [nonanal]
Measured number: 27251
--
Compound: CCCCCCCCCCCCCCCC [n-hexadecane]
Measured number: 21028
--
Compound: CCCCCCCCCCCCCCCCCC [n-octadecane]
Measured number: 31082
--
Compound: C=CC(C)(O)CCC=C(C)CCC=C(C)C (mixture of isomers) [nerolidol]
Measured number: 30215
--
Compound: CC(=O)c1ccccc1 [acetophenone]
Measured number: 26541
--
Compound: CCCCCCCCCCCCCC [n-tetradecane]
Measured number: 28054
--
Compound: CCCCCC(C)=O [2-heptanone]
Measured number: 25268
--
Compound: CC(=O)/C=C/C1=C(C)CCCC1(C)C [β-Ionone]
Measured number: 27612
--
Compound: C=C1CC/C=C(\C)CC[C@@H]2[C@@H]1CC2(C)C [β-caryophyllene]
Measured number: 21938
--
Compound: CCC/C=C/CO [(E)-2-hexenol]
Measured number: 33570
--
Compound: COC(=O)c1ccccc1 [benzoic acid methylester]
Measured number: 28341
--
Compound: CCCCCC=O [caproaldehyde]
Measured number: 24651
--
Compound: C=CC(C)(O)CCC=C(C)C (stereo not shown) [linalool]
Measured number: 35691
--
Compound: CCCCCCCCCCCCO [lauryl alcohol]
Measured number: 24783
--
Compound: C=C(C)C1CC=C(C)CC1 (single isomer, unassigned; (+)) [(+)-limonene]
Measured number: 20374
--
Compound: O=C(c1ccccc1)c1ccccc1 [benzophenone]
Measured number: 21027
--
Compound: CC1=CC[C@@H](C(C)(C)O)CC1 [α-terpineol]
Measured number: 32118
--
Compound: CC(C)COC(=O)CCCCC(=O)OCC(C)C [DA(diisobutyl adipate)]
Measured number: 25998
--
Compound: C/C(=C\CO)CCC[C@H](C)CCC[C@H](C)CCCC(C)C [plant alcohol]
Measured number: 17001
--
Compound: Cc1ccc(C(C)C)cc1 [4-isopropyltoluene]
Measured number: 32252
--
Compound: OC1CCCCC1 [cyclohexanol]
Measured number: 24939
--
Compound: CC/C=C\CCO [(Z)-3-hexenol]
Measured number: 23081

Values from paper PMC6409085
